Assignment: determine reported polymerase ribozyme fitness (log ratio) for the given variants.
B1: TPR 5TU (parent)
chain: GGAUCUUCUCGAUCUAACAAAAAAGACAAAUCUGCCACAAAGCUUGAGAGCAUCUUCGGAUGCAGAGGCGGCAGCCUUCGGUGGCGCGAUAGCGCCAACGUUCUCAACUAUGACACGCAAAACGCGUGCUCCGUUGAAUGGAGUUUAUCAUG

- Variants of: B1
- Test Details: polymerase ribozyme fitness, log enrichment relative to wild type (log ratio); higher = more active; in vitro selection for triplet polymerase activity
Fewer inactive variants are shown than the library holds.

Endpoint output: polymerase ribozyme fitness (log ratio) of A17U A20U A37U G48U C96A U101C . Value?
≤ -4.2

Name the reported polymerase ribozyme fitness (log ratio) value associated with the variant G11A C32U G71A A137G A138G
≤ -4.2

Query (variant): U78G U90G C131A ; field requested: polymerase ribozyme fitness (log ratio)
≤ -4.2

Record polymerase ribozyme fitness (log ratio) per entry; entries follow.
1. A21U A52G C76A G81C C87G C114U A121C U146A
2. U9A U15A G48C C51G G84A
3. A28C C35U G124A G141U

["≤ -4.2", "≤ -4.2", "≤ -4.2"]
